Entry source: patent US9499484B2

Quick reference: melting point of the listed items.

smiles.record	melting point
COC(=O)/C=C/c1c[nH]c2cc(OCc3ccccc3)ccc12	174 to 178 °C
CCN(C)C(=O)Oc1cccc2[nH]ccc12	113 to 115 °C
COC(=O)CCc1c[nH]c2cc(O)ccc12	93 to 96 °C
COc1ccc(N(C)C(=O)Oc2cccc3[nH]ccc23)cc1	113 to 115 °C
CCN(C)C(=O)Oc1ccc2c(/C=C/C(=O)OC)cn(C)c2c1	105 to 110 °C
COC(=O)/C=C/c1c[nH]c2c(OCc3ccccc3)cccc12	134 to 137 °C
COc1ccc(N(C)C(=O)Oc2ccc3cc[nH]c3c2)cc1	168 to 173 °C
O=C(O)/C=C/c1c[nH]c2cccc(OCc3ccccc3)c12	163 to 164 °C
COc1ccc(N(C)C(=O)Oc2cccc3c2c(CCC(=O)O)cn3C)cc1	161 to 163 °C
CCN(C)C(=O)Oc1cccc2[nH]cc(/C=C/[N+](=O)[O-])c12	171 to 174 °C
CCN(C)C(=O)Oc1cccc2c1c(/C=C/C(=O)OC)cn2C	97 to 100 °C
O=C(O)CCc1c[nH]c2cc(O)ccc12	197 to 200 °C
